B1: FBF1 (parent)
chain: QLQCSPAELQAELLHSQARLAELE

- Variants of: B1
- methodSummary: protein stability index of a GFP-peptide fusion (GPS, HEK-293T) (PSI 1-6); higher = more stable;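 note: lentivirally expressed fusions sorted by FACS into six bins by GFP to DsRed ratio, PSI derived from sequencing read proportions per bin multiplied by bin number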
- conditionDetails: c terminus: a fixed tail appended
Please note: true (1) applies when protein stability index is 4 or greater, and false (0) applies otherwise.

* E12H | false (0)
* L2N | false (0)
* Q17C | false (0)
* L13V | true (1)
* L9V | true (1)
